Nischarin (Homo sapiens) measurements of Ki, listed per entry.
Sequence (Q9Y2I1 whole entry): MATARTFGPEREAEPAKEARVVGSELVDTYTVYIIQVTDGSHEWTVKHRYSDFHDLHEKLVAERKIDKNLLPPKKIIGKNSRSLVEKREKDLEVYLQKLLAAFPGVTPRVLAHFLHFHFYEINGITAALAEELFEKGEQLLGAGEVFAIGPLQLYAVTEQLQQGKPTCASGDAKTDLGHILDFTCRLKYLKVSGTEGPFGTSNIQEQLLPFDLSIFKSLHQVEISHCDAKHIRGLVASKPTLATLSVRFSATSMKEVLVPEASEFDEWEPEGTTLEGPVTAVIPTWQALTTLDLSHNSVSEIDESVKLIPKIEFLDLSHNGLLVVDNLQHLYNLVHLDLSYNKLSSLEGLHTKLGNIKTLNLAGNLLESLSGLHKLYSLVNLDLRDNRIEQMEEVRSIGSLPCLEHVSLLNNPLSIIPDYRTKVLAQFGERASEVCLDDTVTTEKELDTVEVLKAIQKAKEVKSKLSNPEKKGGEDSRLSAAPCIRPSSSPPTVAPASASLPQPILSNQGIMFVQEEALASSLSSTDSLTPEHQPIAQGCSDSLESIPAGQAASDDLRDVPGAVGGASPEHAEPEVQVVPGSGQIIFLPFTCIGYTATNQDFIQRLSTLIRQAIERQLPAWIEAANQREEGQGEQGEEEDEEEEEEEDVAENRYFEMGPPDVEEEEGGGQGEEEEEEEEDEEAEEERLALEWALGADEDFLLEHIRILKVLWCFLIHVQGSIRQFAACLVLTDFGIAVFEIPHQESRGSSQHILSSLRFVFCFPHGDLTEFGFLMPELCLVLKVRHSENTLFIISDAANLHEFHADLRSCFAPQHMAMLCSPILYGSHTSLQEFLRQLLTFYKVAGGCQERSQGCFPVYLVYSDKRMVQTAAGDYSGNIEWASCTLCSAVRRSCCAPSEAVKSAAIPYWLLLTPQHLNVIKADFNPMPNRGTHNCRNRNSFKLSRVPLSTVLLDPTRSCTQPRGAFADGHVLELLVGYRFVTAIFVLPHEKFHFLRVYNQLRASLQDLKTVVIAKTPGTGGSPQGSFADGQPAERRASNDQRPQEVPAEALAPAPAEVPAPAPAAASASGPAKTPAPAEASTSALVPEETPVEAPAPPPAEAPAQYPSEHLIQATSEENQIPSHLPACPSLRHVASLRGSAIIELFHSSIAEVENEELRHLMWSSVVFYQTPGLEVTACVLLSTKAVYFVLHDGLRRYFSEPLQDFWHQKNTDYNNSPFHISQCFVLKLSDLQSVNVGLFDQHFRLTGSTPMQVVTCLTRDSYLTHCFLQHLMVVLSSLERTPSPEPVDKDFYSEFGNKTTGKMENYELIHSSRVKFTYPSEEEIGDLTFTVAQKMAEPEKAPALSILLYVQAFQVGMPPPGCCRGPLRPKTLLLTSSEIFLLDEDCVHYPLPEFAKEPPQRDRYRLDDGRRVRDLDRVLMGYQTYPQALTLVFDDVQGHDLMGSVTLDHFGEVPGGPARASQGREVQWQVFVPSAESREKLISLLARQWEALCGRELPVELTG
Reply with just the number (in nM).

Which value of Ki has been reported for CCSc1cc(OC)c(CC(C)N)cc1OC (stereo not given) in the records? 320

Query: Ki; subject: CN(C)CCc1c[nH]c2cccc(O)c12 [4-hydroxy-N,N-dimethyltryptamine] 792

I'd like to know its Ki. The compound in question is `CCSc1cc(OC)c(CCN)cc1OC` 2080

Item CNC(C)Cc1ccc2c(c1)OCO2 (stereo not given) has what recorded Ki? 220

Fill in the blank: the reported Ki of CCSc1cc(OC)c(CC(N)CC)cc1OC (stereo not given) is ____. 947

Returns the measured Ki for the input compound. Input: `COc1ccc2[nH]cc(CCN(C(C)C)C(C)C)c2c1` 760

Return reported Ki; argument: `COc1ccc2[nH]cc(CCN(C)C(C)C)c2c1` 879
